Ref: patent US12551500B2

List of transcription yield higher than that of compound 14 values.
target: T7 RNA polymerase (Escherichia phage T7); experiment: In vitro transcription yield of mRNA with cap analog (co-transcriptional capping); assay type: biochemical; settings: relative to compound 14
Sequence (P00573 whole entry): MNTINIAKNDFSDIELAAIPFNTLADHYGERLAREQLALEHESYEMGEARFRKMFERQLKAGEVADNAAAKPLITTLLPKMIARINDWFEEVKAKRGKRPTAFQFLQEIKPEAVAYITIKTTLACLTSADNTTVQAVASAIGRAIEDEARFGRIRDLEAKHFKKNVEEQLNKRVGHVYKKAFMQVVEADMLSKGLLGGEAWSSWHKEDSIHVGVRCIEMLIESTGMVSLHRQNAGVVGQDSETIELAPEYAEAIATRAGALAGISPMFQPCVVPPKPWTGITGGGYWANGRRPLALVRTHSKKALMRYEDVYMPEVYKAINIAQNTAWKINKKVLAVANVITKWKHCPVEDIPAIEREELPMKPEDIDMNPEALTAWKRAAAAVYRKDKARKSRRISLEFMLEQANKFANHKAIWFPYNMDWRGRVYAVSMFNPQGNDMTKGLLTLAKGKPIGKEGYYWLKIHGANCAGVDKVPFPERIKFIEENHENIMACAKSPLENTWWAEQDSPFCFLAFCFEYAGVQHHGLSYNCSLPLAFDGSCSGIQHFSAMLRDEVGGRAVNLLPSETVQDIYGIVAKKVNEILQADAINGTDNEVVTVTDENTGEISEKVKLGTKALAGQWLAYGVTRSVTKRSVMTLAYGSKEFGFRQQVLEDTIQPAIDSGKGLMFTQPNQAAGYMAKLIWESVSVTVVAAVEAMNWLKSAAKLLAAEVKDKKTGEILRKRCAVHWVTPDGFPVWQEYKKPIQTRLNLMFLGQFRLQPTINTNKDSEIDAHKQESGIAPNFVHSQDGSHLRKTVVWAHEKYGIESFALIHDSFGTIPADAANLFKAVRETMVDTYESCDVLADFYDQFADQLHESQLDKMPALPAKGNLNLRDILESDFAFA

compound: COC1C(OP(=O)([O-])OC[C@H]2O[C@@H](n3cnc4c(=O)[nH]c(N)nc43)C(O)C2O)[C@@H](COP(=O)(O)OP(=O)(O)OP(=O)(O)OC[C@]23O[C@@H]([n+]4cn(C)c5c(=O)[nH]c(N)nc54)C(O[C@H]2CCS(=O)(=O)N(C)C)C3O)O[C@H]1n1cnc2c(N)ncnc21 (stereo partly shown)
test_result: 26.6%
//
compound: COC1C(OP(=O)([O-])OC[C@H]2O[C@@H](n3cnc4c(=O)[nH]c(N)nc43)C(O)C2O)[C@@H](COP(=O)(O)OP(=O)(O)OP(=O)(O)OC[C@]23O[C@@H]([n+]4cn(C)c5c(=O)[nH]c(N)nc54)C(O[C@H]2CC(F)F)C3O)O[C@H]1n1cnc2c(N)ncnc21 (stereo partly shown)
test_result: 35.0%
//
compound: COC1C(OP(=O)([O-])OC[C@H]2O[C@@H](n3cnc4c(=O)[nH]c(N)nc43)C(O)C2O)[C@@H](COP(=O)(O)OP(=O)(O)OP(=O)(O)OC[C@]23O[C@@H]([n+]4cn(C)c5c(=O)[nH]c(N)nc54)C(O[C@H]2CCS(C)(=O)=O)C3O)O[C@H]1n1cnc2c(N)ncnc21 (stereo partly shown)
test_result: 26.2%

Switching to the query record.
Exam item: Reported transcription yield higher than that of compound 14 for COC1C(OP(=O)([O-])OC[C@H]2O[C@@H](n3cnc4c(=O)[nH]c(N)nc43)C(O)C2O)[C@@H](COP(=O)(O)OP(=O)(O)OP(=O)(O)OC[C@]23O[C@@H]([n+]4cn(C)c5c(=O)[nH]c(N)nc54)C(O[C@H]2CC(=O)N(C)C)C3O)O[C@H]1n1cnc2c(N)ncnc21 (stereo partly shown) : what is it?
Marked response: 24.9%

====

List of decapping rate lower than that of compound 14 values.
molecular target: DCP2 enzyme (Schizosaccharomyces pombe); construct: purchased New England Biolabs; experiment: Decapping enzyme stability test; assay type: biochemical; details: difference to compound 14
Sequence (O13828 1-243 limits assumed): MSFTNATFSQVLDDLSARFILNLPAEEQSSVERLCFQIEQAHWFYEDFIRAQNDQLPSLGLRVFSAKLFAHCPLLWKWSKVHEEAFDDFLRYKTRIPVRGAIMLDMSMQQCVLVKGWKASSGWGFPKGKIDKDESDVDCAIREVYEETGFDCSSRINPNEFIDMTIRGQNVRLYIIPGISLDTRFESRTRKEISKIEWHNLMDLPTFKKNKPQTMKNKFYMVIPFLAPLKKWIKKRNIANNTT
Sequence (Q9P805 whole entry partner): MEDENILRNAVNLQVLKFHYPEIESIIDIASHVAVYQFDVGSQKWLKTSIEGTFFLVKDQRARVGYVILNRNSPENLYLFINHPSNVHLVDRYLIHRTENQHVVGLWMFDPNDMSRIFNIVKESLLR
Sequence (Q10108 155-180 partner limits assumed): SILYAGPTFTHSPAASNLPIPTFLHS

compound: COC1C(OP(=O)([O-])OC[C@H]2O[C@@H](n3cnc4c(=O)[nH]c(N)nc43)C(O)C2O)[C@@H](COP(=O)(O)OP(=O)(O)OP(=O)(O)OC[C@]23O[C@@H]([n+]4cn(C)c5c(=O)[nH]c(N)nc54)C(O[C@H]2CC(=O)N(C)C)C3O)O[C@H]1n1cnc2c(N)ncnc21 (stereo partly shown) [YK-CAP-003]
test_result: 17.0%
--
compound: COC1C(OP(=O)([O-])OC[C@H]2O[C@@H](n3cnc4c(=O)[nH]c(N)nc43)C(O)C2O)[C@@H](COP(=O)(O)OP(=O)(O)OP(=O)(O)OC[C@]23O[C@@H]([n+]4cn(C)c5c(=O)[nH]c(N)nc54)C(O[C@H]2CCS(C)(=O)=O)C3O)O[C@H]1n1cnc2c(N)ncnc21 (stereo partly shown) [YK-CAP-005]
test_result: 16.0%
--
compound: COC1C(OP(=O)([O-])OC[C@H]2O[C@@H](n3cnc4c(=O)[nH]c(N)nc43)C(O)C2O)[C@@H](COP(=O)(O)OP(=O)(O)OP(=O)(O)OC[C@]23O[C@@H]([n+]4cn(C)c5c(=O)[nH]c(N)nc54)C(O[C@H]2CCS(=O)(=O)N(C)C)C3O)O[C@H]1n1cnc2c(N)ncnc21 (stereo partly shown) [YK-CAP-006]
test_result: 17.6%

Switching to the query record.
Exam item: Reported decapping rate lower than that of compound 14 for COC1C(OP(=O)([O-])OC[C@H]2O[C@@H](n3cnc4c(=O)[nH]c(N)nc43)C(O)C2O)[C@@H](COP(=O)(O)OP(=O)(O)OP(=O)(O)OC[C@]23O[C@@H]([n+]4cn(C)c5c(=O)[nH]c(N)nc54)C(O[C@H]2CC(F)F)C3O)O[C@H]1n1cnc2c(N)ncnc21 (stereo partly shown) [YK-CAP-004] : what is it?
Marked response: 18.5%

====

assay: Characterization of lipid nanoparticles encapsulating Fluc-mRNA; format: physicochemical; conditions: LNP encapsulating Fluc-mRNA transcribed using the cap analog
readout_kind: PDI
# answer = number (no unit)

Past entries and their recorded results:
compound: COCC1C(O)[C@H]([n+]2cn(C)c3c(=O)[nH]c(N)nc32)O[C@@H]1COP(=O)(O)OP(=O)(O)OP(=O)(O)OC[C@H]1O[C@@H](n2cnc3c(N)ncnc32)C(OC)C1OP(=O)([O-])OC[C@H]1O[C@@H](n2cnc3c(=O)[nH]c(N)nc32)C(O)C1O (stereo partly drawn) [HN3002, reference compound]
PDI: 0.032
--
compound: COC1C(OP(=O)([O-])OC[C@H]2O[C@@H](n3cnc4c(=O)[nH]c(N)nc43)C(O)C2O)[C@@H](COP(=O)(O)OP(=O)(O)OP(=O)(O)OC[C@]23COC(C2O)[C@H]([n+]2cn(C)c4c(=O)[nH]c(N)nc42)O3)O[C@H]1n1cnc2c(N)ncnc21 (stereo partly drawn) [Compound 14, reference compound]
PDI: 0.018

Switching to the query record.
Exam item: Reported PDI for COC1C(OP(=O)([O-])OC[C@H]2O[C@@H](n3cnc4c(=O)[nH]c(N)nc43)C(O)C2O)[C@@H](COP(=O)(O)OP(=O)(O)OP(=O)(O)OC[C@]23O[C@@H]([n+]4cn(C)c5c(=O)[nH]c(N)nc54)C(O[C@H]2CC(F)F)C3O)O[C@H]1n1cnc2c(N)ncnc21 (stereo partly drawn) : what is it?
Marked response: 0.065

====

List of PDI values.
assay: Characterization of lipid nanoparticles encapsulating Fluc-mRNA; type: physicochemical; conditions: LNP encapsulating Fluc-mRNA transcribed using the cap analog
# answer = number (no unit)

compound: COC1C(OP(=O)([O-])OC[C@H]2O[C@@H](n3cnc4c(=O)[nH]c(N)nc43)C(O)C2O)[C@@H](COP(=O)(O)OP(=O)(O)OP(=O)(O)OC[C@]23O[C@@H]([n+]4cn(C)c5c(=O)[nH]c(N)nc54)C(O[C@H]2CCN(C)C)C3O)O[C@H]1n1cnc2c(N)ncnc21 (some centres unmarked)
test_result: 0.044

Switching to the query record.
Exam item: Reported PDI for COC1C(OP(=O)([O-])OC[C@H]2O[C@@H](n3cnc4c(=O)[nH]c(N)nc43)C(O)C2O)[C@@H](COP(=O)(O)OP(=O)(O)OP(=O)(O)OC[C@]23O[C@@H]([n+]4cn(C)c5c(=O)[nH]c(N)nc54)C(O[C@H]2CC(=O)N(C)C)C3O)O[C@H]1n1cnc2c(N)ncnc21 (some centres unmarked) : what is it?
Marked response: 0.032

====

test: Characterization of lipid nanoparticles encapsulating Fluc-mRNA; format: physicochemical; conditions: LNP (YK-009/DSPC/cholesterol/DMG-PEG2000) encapsulating Fluc-mRNA transcribed using the cap analog
List of Particle size values.
Give just the number in nm; leave the unit off.

compound: COCC1C(O)[C@H]([n+]2cn(C)c3c(=O)[nH]c(N)nc32)O[C@@H]1COP(=O)(O)OP(=O)(O)OP(=O)(O)OC[C@H]1O[C@@H](n2cnc3c(N)ncnc32)C(OC)C1OP(=O)([O-])OC[C@H]1O[C@@H](n2cnc3c(=O)[nH]c(N)nc32)C(O)C1O (stereo partly drawn) [HN3002, reference compound]
unit_spec: nm
test_result: 91.03
//
compound: COC1C(OP(=O)([O-])OC[C@H]2O[C@@H](n3cnc4c(=O)[nH]c(N)nc43)C(O)C2O)[C@@H](COP(=O)(O)OP(=O)(O)OP(=O)(O)OC[C@]23O[C@@H]([n+]4cn(C)c5c(=O)[nH]c(N)nc54)C(O[C@H]2CC(=O)N(C)C)C3O)O[C@H]1n1cnc2c(N)ncnc21 (stereo partly drawn)
unit_spec: nm
test_result: 82.83
//
compound: CNc1ncnc2c1ncn2[C@@H]1O[C@H](COP(=O)(O)OP(=O)(O)OP(=O)(O)OC[C@H]2O[C@@H]([n+]3cn(C)c4c(=O)[nH]c(N)nc43)C(O)C2O)C(OP(=O)([O-])OC[C@H]2O[C@@H](n3cnc4c(=O)[nH]c(N)nc43)C(O)C2O)C1OC (stereo partly drawn) [m6A, reference compound]
unit_spec: nm
test_result: 89.99
//
compound: COC1C(OP(=O)([O-])OC[C@H]2O[C@@H](n3cnc4c(=O)[nH]c(N)nc43)C(O)C2O)[C@@H](COP(=O)(O)OP(=O)(O)OP(=O)(O)OC[C@]23O[C@@H]([n+]4cn(C)c5c(=O)[nH]c(N)nc54)C(O[C@H]2CCS(C)(=O)=O)C3O)O[C@H]1n1cnc2c(N)ncnc21 (stereo partly drawn)
unit_spec: nm
test_result: 87.01
//
compound: COC1C(OP(=O)([O-])OC[C@H]2O[C@@H](n3cnc4c(=O)[nH]c(N)nc43)C(O)C2O)[C@@H](COP(=O)(O)OP(=O)(O)OP(=O)(O)OC[C@]23O[C@@H]([n+]4cn(C)c5c(=O)[nH]c(N)nc54)C(O[C@H]2CCN(C)C)C3O)O[C@H]1n1cnc2c(N)ncnc21 (stereo partly drawn)
unit_spec: nm
test_result: 86.13

Exam item: Reported Particle size for COC1C(OP(=O)([O-])OC[C@H]2O[C@@H](n3cnc4c(=O)[nH]c(N)nc43)C(O)C2O)[C@@H](COP(=O)(O)OP(=O)(O)OP(=O)(O)OC[C@H]2O[C@@H]([n+]3cn(C)c4c(=O)[nH]c(N)nc43)C(O)C2OC)O[C@H]1n1cnc2c(N)ncnc21 (stereo partly drawn) [N-7413, reference compound] : what is it?
Marked response: 100.5
